Measured self-splicing fitness (ln) of individual entries
# ASSAY DETAILS: self-splicing fitness, log relative to wild type (ln ratio); higher = more splicing; Tetrahymena group I intron in knt gene, E. coli kanamycin selection, DiMSum; sequences stand for … in CUCUCU…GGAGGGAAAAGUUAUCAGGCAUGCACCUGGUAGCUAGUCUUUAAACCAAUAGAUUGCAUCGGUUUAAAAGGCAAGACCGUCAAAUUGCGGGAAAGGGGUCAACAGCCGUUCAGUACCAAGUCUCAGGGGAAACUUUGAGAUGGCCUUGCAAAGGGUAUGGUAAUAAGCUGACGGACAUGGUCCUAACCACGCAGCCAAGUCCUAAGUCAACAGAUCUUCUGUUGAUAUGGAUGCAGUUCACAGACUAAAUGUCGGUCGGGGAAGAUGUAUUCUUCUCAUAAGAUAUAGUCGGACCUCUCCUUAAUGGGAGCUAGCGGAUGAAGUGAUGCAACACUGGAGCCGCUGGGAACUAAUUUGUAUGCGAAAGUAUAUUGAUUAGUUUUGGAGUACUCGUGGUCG;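 also: selection with 25 µg/mL kanamycin versus none on LB agar overnight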
# RUN CONDITIONS: 37 °C

SEQUENCE TEXT: GUAUAGCAAUAUUACGAGAC
self-splicing fitness (ln): -1.24
--
SEQUENCE TEXT: ACUGAGCAAUAUUACGUCAC
self-splicing fitness (ln): -2.75
--
SEQUENCE TEXT: UGAGAGCAAUAUUACGUGAU
self-splicing fitness (ln): -2.72
--
SEQUENCE TEXT: CGUUAGCAAUAUUACGCCUU
self-splicing fitness (ln): -2.18

----------
Measured self-splicing fitness (ln) of individual entries
# ASSAY DETAILS: self-splicing fitness, log relative to wild type (ln ratio); higher = more splicing; Tetrahymena group I intron in knt gene, E. coli kanamycin selection, DiMSum; sequences stand for … in CUCUCU…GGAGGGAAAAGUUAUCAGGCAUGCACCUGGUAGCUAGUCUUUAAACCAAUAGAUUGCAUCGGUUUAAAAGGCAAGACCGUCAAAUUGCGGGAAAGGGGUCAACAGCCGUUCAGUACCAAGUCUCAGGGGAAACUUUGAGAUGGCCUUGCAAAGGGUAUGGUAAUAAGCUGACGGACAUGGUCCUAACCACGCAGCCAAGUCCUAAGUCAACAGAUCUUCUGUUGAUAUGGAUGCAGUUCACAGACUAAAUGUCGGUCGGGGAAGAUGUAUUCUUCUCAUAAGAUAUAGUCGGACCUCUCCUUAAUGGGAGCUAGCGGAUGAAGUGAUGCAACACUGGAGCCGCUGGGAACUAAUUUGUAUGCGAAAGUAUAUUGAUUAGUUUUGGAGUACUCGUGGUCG
# RUN CONDITIONS: 30 °C

SEQUENCE TEXT: CAGUAGCAAUAUUACGCGAU
self-splicing fitness (ln): -2.39

SEQUENCE TEXT: GUACAGCAAUAUUACGGUGU
self-splicing fitness (ln): -3.2

SEQUENCE TEXT: UCUGAGCAAUAUUACGUUAC
self-splicing fitness (ln): -3.38

SEQUENCE TEXT: GGAUAGCAAUAUUACGAGGU
self-splicing fitness (ln): -2.75

SEQUENCE TEXT: UUUCAGCAAUAUUACGCCCC
self-splicing fitness (ln): -1.57

SEQUENCE TEXT: AUGUAGCAAUAUUACGCUCG
self-splicing fitness (ln): -0.227

SEQUENCE TEXT: CAGAAGCAAUAUUACGCGGG
self-splicing fitness (ln): -2.43

SEQUENCE TEXT: CAUGAGCAAUAUUACGGCAG
self-splicing fitness (ln): -0.481

SEQUENCE TEXT: UAGAAGCAAUAUUACGCCGA
self-splicing fitness (ln): -1.47

SEQUENCE TEXT: CUCUAGCAAUAUUACGAAUU
self-splicing fitness (ln): -3.81

SEQUENCE TEXT: UUCGAGCAAUAUUACGCCUC
self-splicing fitness (ln): -3.3

----------
# ASSAY DETAILS: self-splicing fitness, log relative to wild type (ln ratio); higher = more splicing; Tetrahymena group I intron in knt gene, E. coli kanamycin selection, DiMSum; sequences stand for … in CUCUCU…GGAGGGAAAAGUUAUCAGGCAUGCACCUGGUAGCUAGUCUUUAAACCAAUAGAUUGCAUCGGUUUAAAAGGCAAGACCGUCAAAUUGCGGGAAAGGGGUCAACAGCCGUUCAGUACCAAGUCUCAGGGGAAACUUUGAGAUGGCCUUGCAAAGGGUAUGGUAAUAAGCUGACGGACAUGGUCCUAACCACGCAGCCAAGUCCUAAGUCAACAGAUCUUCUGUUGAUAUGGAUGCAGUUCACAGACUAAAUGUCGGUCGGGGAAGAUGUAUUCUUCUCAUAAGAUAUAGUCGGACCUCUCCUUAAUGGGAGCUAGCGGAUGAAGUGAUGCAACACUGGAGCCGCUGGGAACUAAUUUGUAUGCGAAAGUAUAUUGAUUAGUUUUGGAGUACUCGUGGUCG
# RUN CONDITIONS: 37 °C

SEQUENCE TEXT: UAUUAGCAAUAUUACGUAGA
self-splicing fitness (ln): -1.38
//
SEQUENCE TEXT: AACAAGCAAUAUUACGCCGU
self-splicing fitness (ln): -0.696
//
SEQUENCE TEXT: CAUCAGCAAUAUUACGGGGA
self-splicing fitness (ln): -1.22
//
SEQUENCE TEXT: GUAGAGCAAUAUUACGACGC
self-splicing fitness (ln): 0.929
//
SEQUENCE TEXT: GAAGAGCAAUAUUACGCCCC
self-splicing fitness (ln): -0.902
//
SEQUENCE TEXT: GCGAAGCAAUAUUACGGAAC
self-splicing fitness (ln): -2.28
//
SEQUENCE TEXT: UCGGAGCAAUAUUACGUAAU
self-splicing fitness (ln): -1.86
//
SEQUENCE TEXT: GUCUAGCAAUAUUACGCGGG
self-splicing fitness (ln): -1.98
//
SEQUENCE TEXT: GGUCAGCAAUAUUACGAUUG
self-splicing fitness (ln): 0.0247
//
SEQUENCE TEXT: GACCAGCAAUAUUACGCGUG
self-splicing fitness (ln): 0.216
//
SEQUENCE TEXT: AUAAAGCAAUAUUACGUCGA
self-splicing fitness (ln): 0.858
//
SEQUENCE TEXT: CCGCAGCAAUAUUACGAUAU
self-splicing fitness (ln): -2.76
//
SEQUENCE TEXT: GAACAGCAAUAUUACGUGGU
self-splicing fitness (ln): -1.89
//
SEQUENCE TEXT: AGAGAGCAAUAUUACGACAU
self-splicing fitness (ln): -1.94
//
SEQUENCE TEXT: GGGCAGCAAUAUUACGAAGG
self-splicing fitness (ln): -2.45
//
SEQUENCE TEXT: GCGAAGCAAUAUUACGACGG
self-splicing fitness (ln): -0.313
//
SEQUENCE TEXT: UUGUAGCAAUAUUACGCAUC
self-splicing fitness (ln): -3.19
//
SEQUENCE TEXT: CCCGAGCAAUAUUACGGAGG
self-splicing fitness (ln): -2.57
//
SEQUENCE TEXT: GAGAAGCAAUAUUACGAGCA
self-splicing fitness (ln): -0.727
//
SEQUENCE TEXT: GGGCAGCAAUAUUACGGGUC
self-splicing fitness (ln): -2.02
//
SEQUENCE TEXT: CAGGAGCAAUAUUACGGGCA
self-splicing fitness (ln): -2.35
//
SEQUENCE TEXT: UCAAAGCAAUAUUACGUAUC
self-splicing fitness (ln): -2.17
//
SEQUENCE TEXT: GAUUAGCAAUAUUACGAUGC
self-splicing fitness (ln): -0.525
//
SEQUENCE TEXT: GCACAGCAAUAUUACGAGAC
self-splicing fitness (ln): -2.06
//
SEQUENCE TEXT: CGUUAGCAAUAUUACGAACG
self-splicing fitness (ln): -2.62
//
SEQUENCE TEXT: AGUGAGCAAUAUUACGUGGU
self-splicing fitness (ln): -2.18
//
SEQUENCE TEXT: CAGCAGCAAUAUUACGGGGA
self-splicing fitness (ln): -2.22

----------
# ASSAY DETAILS: self-splicing fitness, log relative to wild type (ln ratio); higher = more splicing; Tetrahymena group I intron in knt gene, E. coli kanamycin selection, DiMSum; sequences stand for … in CUCUCU…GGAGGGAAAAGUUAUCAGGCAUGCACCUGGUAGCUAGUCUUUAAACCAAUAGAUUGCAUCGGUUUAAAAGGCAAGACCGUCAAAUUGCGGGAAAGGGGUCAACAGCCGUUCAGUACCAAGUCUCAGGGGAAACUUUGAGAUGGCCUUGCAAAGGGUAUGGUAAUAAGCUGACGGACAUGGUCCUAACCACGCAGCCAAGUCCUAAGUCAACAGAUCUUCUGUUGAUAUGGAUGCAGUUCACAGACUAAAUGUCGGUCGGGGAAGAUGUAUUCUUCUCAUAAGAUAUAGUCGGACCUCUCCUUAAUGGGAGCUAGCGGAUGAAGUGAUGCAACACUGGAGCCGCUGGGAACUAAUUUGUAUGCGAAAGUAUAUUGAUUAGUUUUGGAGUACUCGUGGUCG
# RUN CONDITIONS: 37 °C
Each record gets a class by self-splicing fitness (ln): L = under -2, M = from -2 up to -0.6, H = -0.6 and over

SEQUENCE TEXT: UUGUAGCAAUAUUACGUCUG
LABEL VALUE: H
--
SEQUENCE TEXT: UCGCAGCAAUAUUACGUAUA
LABEL VALUE: M
--
SEQUENCE TEXT: GGACAGCAAUAUUACGAGCA
LABEL VALUE: M
--
SEQUENCE TEXT: GUGCAGCAAUAUUACGCAGG
LABEL VALUE: L
--
SEQUENCE TEXT: GGCAAGCAAUAUUACGCAGC
LABEL VALUE: L
--
SEQUENCE TEXT: GGGGAGCAAUAUUACGGUAA
LABEL VALUE: L
--
SEQUENCE TEXT: UUAAAGCAAUAUUACGGGUA
LABEL VALUE: H
--
SEQUENCE TEXT: CAGCAGCAAUAUUACGGCCA
LABEL VALUE: H
--
SEQUENCE TEXT: CAAGAGCAAUAUUACGUUGG
LABEL VALUE: M
--
SEQUENCE TEXT: CCCAAGCAAUAUUACGUCGA
LABEL VALUE: L
--
SEQUENCE TEXT: AACUAGCAAUAUUACGUGUG
LABEL VALUE: M
--
SEQUENCE TEXT: UAUAAGCAAUAUUACGCUCA
LABEL VALUE: H
--
SEQUENCE TEXT: GGUUAGCAAUAUUACGAUGC
LABEL VALUE: H
--
SEQUENCE TEXT: AUUCAGCAAUAUUACGUGCC
LABEL VALUE: M
--
SEQUENCE TEXT: CCCUAGCAAUAUUACGUCGC
LABEL VALUE: L
--
SEQUENCE TEXT: GCGCAGCAAUAUUACGCGGU
LABEL VALUE: L
--
SEQUENCE TEXT: GUAUAGCAAUAUUACGGGCA
LABEL VALUE: M
--
SEQUENCE TEXT: GUAAAGCAAUAUUACGCAUG
LABEL VALUE: M
--
SEQUENCE TEXT: UGGCAGCAAUAUUACGGAUG
LABEL VALUE: M
--
SEQUENCE TEXT: GACAAGCAAUAUUACGUCUU
LABEL VALUE: M
--
SEQUENCE TEXT: AUUUAGCAAUAUUACGGUGU
LABEL VALUE: M
--
SEQUENCE TEXT: AGAAAGCAAUAUUACGGUAA
LABEL VALUE: H
--
SEQUENCE TEXT: AUCGAGCAAUAUUACGCGAA
LABEL VALUE: M
--
SEQUENCE TEXT: AUCUAGCAAUAUUACGAUUA
LABEL VALUE: M
--
SEQUENCE TEXT: ACCUAGCAAUAUUACGAGGC
LABEL VALUE: L
--
SEQUENCE TEXT: ACGUAGCAAUAUUACGCACA
LABEL VALUE: H
--
SEQUENCE TEXT: CGGGAGCAAUAUUACGACUG
LABEL VALUE: M
--
SEQUENCE TEXT: UGGAAGCAAUAUUACGUAAA
LABEL VALUE: H
--
SEQUENCE TEXT: GAAAAGCAAUAUUACGAUAU
LABEL VALUE: H
